# target.or.test.system: human SGLT2 (Homo sapiens (Human), UniProt P31639)
# Sequence (P31639 whole entry): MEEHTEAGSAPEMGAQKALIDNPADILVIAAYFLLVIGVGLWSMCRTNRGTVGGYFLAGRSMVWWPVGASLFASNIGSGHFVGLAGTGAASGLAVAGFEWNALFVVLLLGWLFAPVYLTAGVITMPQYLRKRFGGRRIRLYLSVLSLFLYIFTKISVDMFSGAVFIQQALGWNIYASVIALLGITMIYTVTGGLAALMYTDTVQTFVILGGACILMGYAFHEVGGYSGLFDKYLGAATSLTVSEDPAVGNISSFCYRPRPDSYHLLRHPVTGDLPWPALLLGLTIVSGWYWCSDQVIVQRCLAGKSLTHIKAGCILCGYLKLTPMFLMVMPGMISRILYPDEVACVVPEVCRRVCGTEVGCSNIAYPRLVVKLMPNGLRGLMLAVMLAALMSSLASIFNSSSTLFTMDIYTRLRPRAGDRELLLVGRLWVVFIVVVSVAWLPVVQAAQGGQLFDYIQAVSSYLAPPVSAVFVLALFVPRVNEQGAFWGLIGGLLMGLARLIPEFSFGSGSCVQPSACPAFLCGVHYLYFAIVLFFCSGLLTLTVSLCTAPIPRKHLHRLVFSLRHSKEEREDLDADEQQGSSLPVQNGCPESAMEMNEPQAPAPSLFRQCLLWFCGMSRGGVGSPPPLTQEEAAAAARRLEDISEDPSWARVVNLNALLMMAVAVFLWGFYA
# assay.info: Inhibitory effects on human SGLT2 activities (14C-AMG uptake, sodium-dependent glucose transport assay)
# recorded.conditions: CHO cells stably expressing hSGLT2, 37° C., 2 h, single determinations
reported.property: pIC50
Keep it numeric: pIC50 is minus log10 of the concentration in mol/L.

1) CO[C@@H]1O[C@@H](c2ccc(Cl)c(Cc3ccc4c(c3)OCCO4)c2)[C@H](O)[C@@H](O)[C@@H]1O [Example E094] = 7.27
2) COc1ccc(Cc2cc([C@@H]3O[C@H](CO)[C@@H](O)[C@H](O)[C@H]3O)c3c(c2F)CCC3)cc1 [Example E006] = 8.69
3) OC[C@H]1O[C@@H](c2cc(Cc3ccc4c(c3)OCCO4)c(Cl)c3c2OCC3)[C@H](O)[C@@H](O)[C@@H]1O [Example E191] = 8.80

Which pIC50 is reported with human SGLT2 (Homo sapiens (Human), UniProt P31639) for this entry: CCOc1ccc(Cc2cc([C@@H]3O[C@H](CO)[C@@H](O)[C@H](O)[C@H]3O)c3c(c2Cl)OCCCO3)cc1 [Example E164] ?
8.89

Query CCc1ccc(Cc2cc([C@@H]3O[C@H](CO)[C@@H](O)[C@H](O)[C@H]3O)c3c(c2C(F)F)CCC3)cc1 [Example E239] next
9.14

Query CCc1ccc(Cc2cc([C@@H]3O[C@H](CO)[C@@H](O)[C@H](O)[C@H]3O)c3c(c2Cl)OCCC3)cc1 [Example E023] next
9.12

Query OC[C@H]1O[C@@H](c2cc(Cc3ccc(OCCOC4CC4)cc3)c(Cl)c3c2CCO3)[C@H](O)[C@@H](O)[C@@H]1O [Example E198] next
8.69

###

Below, each entry is listed with its recorded pIC50.
# target.or.test.system: human SGLT2 (Homo sapiens (Human))
# assay.info: Inhibitory effects on human SGLT2 activities (14C-AMG uptake, sodium-dependent glucose transport assay)
# recorded.conditions: CHO cells stably expressing hSGLT2, 37° C., 2 h, single determinations
Keep it numeric: pIC50 is minus log10 of the concentration in mol/L.

1. CCc1ccc(Cc2cc([C@@H]3O[C@H](CO)[C@@H](O)[C@H](O)[C@H]3O)c3c(c2Cl)CCC3)cc1 = 9.20

Data request, read-out pIC50, for `CCOc1ccc(Cc2cc([C@@H]3O[C@H](CO)[C@@H](O)[C@H](O)[C@H]3O)c3c(c2Cl)CCO3)cc1`
9.08

Query `CC(=O)c1ccc(Cc2cc([C@@H]3O[C@H](CO)[C@@H](O)[C@H](O)[C@H]3O)c3c(c2Cl)OCC3)cc1` next
9.02

Query `CCc1ccc(Cc2cc([C@@H]3O[C@H](CO)[C@@H](O)[C@H](O)[C@H]3O)c3c(c2Cl)CCO3)cc1` next
9.05

###

# target.or.test.system: human SGLT2 (Homo sapiens (Human), UniProt P31639)
# assay.info: Inhibitory effects on human SGLT2 activities (14C-AMG uptake, sodium-dependent glucose transport assay)
# recorded.conditions: CHO cells stably expressing hSGLT2, 37° C., 2 h, single determinations
Below, each entry is listed with its recorded pIC50.
Keep it numeric: pIC50 is minus log10 of the concentration in mol/L.

1. OC[C@H]1O[C@@H](c2ccc(Cl)c(Cc3ccc4c(c3)OCCCO4)c2)[C@H](O)[C@@H](O)[C@@H]1O = 8.36

Data request, read-out pIC50, for `Cn1ncc2cc(Cc3cc([C@@H]4O[C@H](CO)[C@@H](O)[C@H](O)[C@H]4O)ccc3Cl)ccc21`
8.76

###

# target.or.test.system: human SGLT2 (Homo sapiens (Human), UniProt P31639)
# assay.info: Inhibitory effects on human SGLT2 activities (14C-AMG uptake, sodium-dependent glucose transport assay)
# recorded.conditions: CHO cells stably expressing hSGLT2, 37° C., 2 h, single determinations
# From the text: Test 1: Cloning and Cell Line Construction for Human SGLT2 Human SGLT2 (hSGLT2) gene was amplified by PCR from cDNA-Human Adult Normal Tissue Kidney (Invitrogen). The hSGLT2 sequence was cloned into pcDNA3.1(+) for mammalian expression and stably transfected into chinese hamster ovary (CHO) cells. SGLT2-expressing clones were selected based on resistance to G418 antibiotic (Geneticin) and activity in the ^14C-α-methyl-D-glucopyranoside (^14C-AMG) uptake assay. […]
reported.property: pIC50
Keep it numeric: pIC50 is minus log10 of the concentration in mol/L.

Past entries and their recorded results:
1) CCOc1ccc(Cc2cc([C@@H]3O[C@H](CO)[C@@H](O)[C@H](O)[C@H]3O)c3sccc3c2Cl)cc1 = 6.56
2) OC[C@H]1O[C@@H](c2ccc(Cl)c(Cc3ccc4sccc4c3)c2)[C@H](O)[C@@H](O)[C@@H]1O = 9.06
3) CC(C)c1ccc(Cc2cc([C@@H]3O[C@H](CO)[C@@H](O)[C@H](O)[C@H]3O)c3c(c2Cl)OCO3)cc1 = 9.06
4) OC[C@H]1O[C@@H](c2cc(Cc3ccc(C4CCCC4)cc3)c(Cl)c3c2CCO3)[C@H](O)[C@@H](O)[C@@H]1O = 8.94

Data request, read-out pIC50, for `OC[C@H]1O[C@@H](c2ccc(Cl)c(Cc3ccc4c(c3)OCO4)c2)[C@H](O)[C@@H](O)[C@@H]1O`
8.59

Query `CN(C)c1ccc(Cc2cc([C@@H]3O[C@H](CO)[C@@H](O)[C@H](O)[C@H]3O)c3c(c2Cl)CCO3)cc1` next
8.49

Query `COc1cc(Cl)c(Cc2ccc3c(c2)OCCO3)cc1[C@@H]1S[C@H](CO)[C@@H](O)[C@H](O)[C@H]1O` next
8.58

###

# target.or.test.system: human SGLT2 (Homo sapiens (Human))
# assay.info: Inhibitory effects on human SGLT2 activities (14C-AMG uptake, sodium-dependent glucose transport assay)
# recorded.conditions: CHO cells stably expressing hSGLT2, 37° C., 2 h, single determinations
reported.property: log10 IC50 (log10 of the value in nM)
Form field - Quantity: IC50; Unit: nM; Scale: log10

Past entries and their recorded results:
1. COC1O[C@@H](c2ccc(Cl)c(Cc3ccc4c(c3)OCCO4)c2)[C@H](O)[C@@H](O)[C@@H]1O (stereo partly shown) [Example E093] = 1.23
2. Cn1ccc2cc(Cc3cc([C@@H]4O[C@H](CO)[C@@H](O)[C@H](O)[C@H]4O)ccc3Cl)ccc21 [Example E034] = 0.47
3. CCOc1ccc(Cc2cc([C@@H]3O[C@H](CO)[C@@H](O)[C@H](O)[C@H]3O)c3c(c2Cl)OCC3)cc1 [Example E024] = 0.18
4. CCOc1ccc(Cc2cc([C@@H]3O[C@H](C(C)O)[C@@H](O)[C@H](O)[C@H]3O)c3c(c2Cl)OCC3)cc1 (stereo partly shown) [Example E127] = 0.13
5. OC[C@H]1O[C@@H](c2ccc(Cl)c(Cc3ccc4c(c3)CCS4)c2)[C@H](O)[C@@H](O)[C@@H]1O [Example E032] = 0.33
6. CCOc1ccc(Cc2cc([C@@H]3O[C@H](C)[C@@H](O)[C@H](O)[C@H]3O)c3c(c2Cl)OCC3)cc1 [Example E125] = -0.14

Data request, read-out log10 IC50, for COc1ccc(Cc2cc([C@@H]3O[C@H](CO)[C@@H](O)[C@H](O)[C@H]3O)c3c(c2Cl)C(=O)CO3)cc1 [Example E195]
1.55

###

# target.or.test.system: human SGLT2 (Homo sapiens (Human))
# assay.info: Inhibitory effects on human SGLT2 activities (14C-AMG uptake, sodium-dependent glucose transport assay)
# Format: cell-based
# recorded.conditions: CHO cells stably expressing hSGLT2, 37° C., 2 h, single determinations
reported.property: pIC50
Keep it numeric: pIC50 is minus log10 of the concentration in mol/L.

1. CN(C)c1ccc(Cc2cc([C@@H]3O[C@H](CO)[C@@H](O)[C@H](O)[C@H]3O)c3c(c2Cl)OCC3)cc1 = 8.95
2. OC[C@H]1O[C@@H](c2ccc(Cl)c(Cc3ccc4c(c3)OC=CO4)c2)[C@H](O)[C@@H](O)[C@@H]1O = 9.10
3. COc1ccc(Cc2cc([C@@H]3O[C@H](CO)[C@@H](O)[C@H](O)[C@H]3O)c3c(c2Br)CCC3)cc1 = 8.94
4. C#CC(C)(O)c1ccc(Cc2cc([C@@H]3O[C@H](CO)[C@@H](O)[C@H](O)[C@H]3O)c3c(c2Cl)OCC3)cc1 (stereo partly drawn) = 8.28
5. CCOc1ccc(Cc2cc([C@@H]3O[C@H](S(C)(=O)=O)[C@@H](O)[C@H](O)[C@H]3O)c(OC)cc2Cl)cc1 = 8.13

Next up:
Data request, read-out pIC50, for `CCc1ccc(Cc2cc([C@@H]3O[C@H](CO)[C@@H](O)[C@H](O)[C@H]3O)cc(-c3ccccc3)c2C)cc1`
8.02
